assay: binders of control antibody PGV04, dose response, counter-screen for PG9 antibody binder project, biochemical, TR-FRET, distinct HIV envelope site (AID 651937); conditions: TR-FRET binding to control antibody PGV04
The list shows a part of the results. Calls of active or inactive are those of the source. Rule as the data show it: active = IC50 below about 9 µM; inactive = the rest.
Labels: yes for active, no for inactive

[[record]]
smiles_record = "S=c1[nH]c2ccccc2c2ccccc12"
class_label = "no"

[[record]]
smiles_record = "CC1(C)Cc2ccccc2-c2[nH]c(=S)[nH]c(=O)c21"
class_label = "no"

[[record]]
smiles_record = "Cc1cccc(Nc2nc3c(S(=O)(=O)c4ccccc4)nnn3c3ccccc23)c1C"
class_label = "yes"

[[record]]
smiles_record = "COc1ccc(-c2c(C)nn3c(N4CCC(C(=O)N5CCCCC5)CC4)cc(C)nc23)cc1OC"
class_label = "no"

[[record]]
smiles_record = "O=C(Nc1nnc(-c2ccccc2F)s1)c1ccccc1F"
class_label = "no"

